target: BRAF V600E (Homo sapiens, UniProt P15056, V600E); construct: endogenous C-terminal HiBiT fusion tag on BRAF V600E allele; endogenous in cells; host or cells: A375 clone 1F10 (CRISPR-Cas9 knock-in of the HiBiT tag; parental A375 from ATCC); assay: BRAF HiBiT degradation assay, C-terminal HiBiT-tagged BRAF V600E A375 cells (clone 1F10), Nano-Glo HiBiT Lytic assay; assay type: cell-based; conditions: A-375; A375 (BRAF V600E); percentage protein degraded at maximal compound effect relative to DMSO
Sequence (P15056 whole entry V600E, the tested form may be a part): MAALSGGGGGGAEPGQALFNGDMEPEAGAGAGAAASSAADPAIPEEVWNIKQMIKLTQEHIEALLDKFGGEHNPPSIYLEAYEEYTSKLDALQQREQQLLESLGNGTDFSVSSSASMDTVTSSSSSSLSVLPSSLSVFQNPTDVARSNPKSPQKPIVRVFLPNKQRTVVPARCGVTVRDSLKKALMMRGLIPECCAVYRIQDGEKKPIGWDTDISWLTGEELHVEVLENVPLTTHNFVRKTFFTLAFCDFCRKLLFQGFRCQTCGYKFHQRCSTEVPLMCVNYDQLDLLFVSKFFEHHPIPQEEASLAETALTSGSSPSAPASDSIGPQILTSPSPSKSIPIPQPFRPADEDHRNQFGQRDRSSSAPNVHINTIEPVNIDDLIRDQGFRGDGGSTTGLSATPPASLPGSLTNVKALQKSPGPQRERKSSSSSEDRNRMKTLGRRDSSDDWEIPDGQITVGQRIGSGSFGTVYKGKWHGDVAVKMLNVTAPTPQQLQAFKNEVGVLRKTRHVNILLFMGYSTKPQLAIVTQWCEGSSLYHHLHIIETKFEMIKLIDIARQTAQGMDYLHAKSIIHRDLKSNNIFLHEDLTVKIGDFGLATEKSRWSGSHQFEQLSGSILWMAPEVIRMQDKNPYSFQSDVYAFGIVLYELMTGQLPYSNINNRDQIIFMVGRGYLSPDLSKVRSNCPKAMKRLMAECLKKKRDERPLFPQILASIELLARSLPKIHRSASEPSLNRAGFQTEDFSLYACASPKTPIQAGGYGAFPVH
Quick reference for Dmax among some molecules
recordedEndpoint: Dmax

>  <molecule>
CCCS(=O)(=O)Nc1cccc(-c2nc(C3CCN(C(=O)C4CCN(CC5CCN(c6ccc([C@H]7CCC(=O)NC7=O)cc6)CC5)CC4)CC3)sc2-c2ccnc(NC)n2)c1F

>  <recordedEndpoint>
Dmax

>  <recordedValue>
> 70%

$$$$
>  <molecule>
CCCS(=O)(=O)Nc1cccc(-c2nc(C(C)(C)C)sc2-c2ccnc(Nc3ccc(N4CCN(C(=O)[C@H]5CC[C@H](Oc6ccc(C7CCC(=O)NC7=O)cn6)CC5)CC4)c(F)c3)n2)c1F (mixture of isomers)

>  <recordedEndpoint>
Dmax

>  <recordedValue>
> 70%

$$$$
>  <molecule>
CCCS(=O)(=O)Nc1cccc(-c2nc(C(C)(C)C)sc2-c2ccnc(NC3CC4(CCN(C[C@H]5CC[C@H](Oc6ccc(C7CCC(=O)NC7=O)cc6)CC5)CC4)C3)n2)c1F (mixture of isomers)

>  <recordedEndpoint>
Dmax

>  <recordedValue>
30 to 70%

$$$$
>  <molecule>
CCCS(=O)(=O)Nc1cccc(-c2cn(-c3ccc(N4CCN(CC5CCN(c6ccc([C@@H]7CCC(=O)NC7=O)cc6)CC5)CC4)cc3)nc2-c2ccncc2)c1F

>  <recordedEndpoint>
Dmax

>  <recordedValue>
> 70%

$$$$
>  <molecule>
CCCS(=O)(=O)Nc1cccc(-c2nc(C3CCC4(CC3)CN(C(=O)CN3CCC5(CC3)CN(c3ccc6c(c3)C(=O)N(C3CCC(=O)NC3=O)C6=O)C5)C4)sc2-c2ccnc(N)n2)c1F (racemic)

>  <recordedEndpoint>
Dmax

>  <recordedValue>
> 70%

$$$$
>  <molecule>
CCN(C)S(=O)(=O)Nc1cccc(-c2nc(C3CCN(C(=O)C4CCN(C(=O)C5CCN(c6ccc(C7CCC(=O)NC7=O)cn6)CC5)CC4)CC3)sc2-c2ccnc(NC(C)C)n2)c1F (racemic)

>  <recordedEndpoint>
Dmax

>  <recordedValue>
> 70%

$$$$
>  <molecule>
CCCS(=O)(=O)Nc1cccc(-c2nc(C3CCC4(CC3)CCN(C(=O)CN3CCN(CCCc5cccc6c5C(=O)N(C5CCC(=O)NC5=O)C6=O)CC3)CC4)sc2-c2ccnc(N)n2)c1F (racemic)

>  <recordedEndpoint>
Dmax

>  <recordedValue>
30 to 70%

$$$$
>  <molecule>
CCCS(=O)(=O)Nc1cccc(-c2nc(C)sc2-c2ccnc(Nc3ccc(N4CCN(CC5CCN(c6ccc(C7CCC(=O)NC7=O)cn6)CC5)CC4)cn3)n2)c1F (racemic)

>  <recordedEndpoint>
Dmax

>  <recordedValue>
> 70%

$$$$
>  <molecule>
CCCS(=O)(=O)Nc1cccc(-c2nc(C(C)(C)C)sc2-c2ccnc(Nc3cccc(OC4CCN(C(=O)[C@@H]5CCN(c6ccc(C7CCC(=O)NC7=O)cn6)C5)CC4)c3)n2)c1F (mixture of isomers)

>  <recordedEndpoint>
Dmax

>  <recordedValue>
> 70%

$$$$
>  <molecule>
CCCS(=O)(=O)Nc1cccc(-c2nc(C3CCN(C(=O)C4CCN(CC5CCN(c6cccc7c6n(C)c(=O)n7C6CCC(=O)NC6=O)CC5)CC4)CC3)sc2-c2ccnc(N)n2)c1F (racemic)

>  <recordedEndpoint>
Dmax

>  <recordedValue>
> 70%

$$$$

###

molecular target: BRAF D594G (Homo sapiens, UniProt P15056, D594G); construct: Horizon Discovery (HCT-116 BRAF−/− cells); host or cells: HCT-116 BRAF−/− cells, clone 63, lentiviral transduction; test: BRAF HiBiT degradation assay, C-terminal HiBiT-tagged BRAF D594G overexpressed in HCT-116 BRAF−/− cells (clone 63), Nano-Glo HiBiT Lytic assay; format: cell-based; conditions: BRAF D594G; DC50 at 50%: fitted conc. at Y=50
Sequence (P15056 whole entry D594G): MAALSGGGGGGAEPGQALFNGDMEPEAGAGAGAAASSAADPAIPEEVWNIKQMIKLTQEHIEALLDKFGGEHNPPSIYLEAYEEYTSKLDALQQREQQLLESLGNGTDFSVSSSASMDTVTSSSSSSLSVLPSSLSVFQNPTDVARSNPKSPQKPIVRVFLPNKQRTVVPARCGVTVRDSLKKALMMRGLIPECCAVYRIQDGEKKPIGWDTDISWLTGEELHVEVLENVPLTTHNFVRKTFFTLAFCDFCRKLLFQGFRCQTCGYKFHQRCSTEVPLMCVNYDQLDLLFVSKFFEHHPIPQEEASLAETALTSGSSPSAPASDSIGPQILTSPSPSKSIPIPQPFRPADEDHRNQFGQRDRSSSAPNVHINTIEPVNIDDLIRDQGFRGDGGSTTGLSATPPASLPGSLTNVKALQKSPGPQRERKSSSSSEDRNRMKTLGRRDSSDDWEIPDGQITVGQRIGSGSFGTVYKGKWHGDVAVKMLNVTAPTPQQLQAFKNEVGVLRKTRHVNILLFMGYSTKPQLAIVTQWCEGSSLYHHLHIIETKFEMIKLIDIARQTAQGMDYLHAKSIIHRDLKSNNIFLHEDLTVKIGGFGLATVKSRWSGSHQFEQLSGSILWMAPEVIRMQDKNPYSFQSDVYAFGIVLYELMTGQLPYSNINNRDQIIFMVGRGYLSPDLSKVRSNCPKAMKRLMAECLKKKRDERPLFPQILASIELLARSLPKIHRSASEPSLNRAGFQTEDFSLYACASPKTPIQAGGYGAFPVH
recordedEndpoint: DC50

>  <compound>
CCCS(=O)(=O)Nc1cccc(-c2nc(C(C)(C)C)sc2-c2ccnc(Nc3cccc(OC4CCN(C(=O)C5CCN(c6cc(C7CCC(=O)NC7=O)ccn6)CC5)CC4)c3)n2)c1F (racemic) [Compound 100]

>  <recordedEndpoint>
DC50

>  <recordedValue>
50 to 500 nM

$$$$
>  <compound>
CCCS(=O)(=O)Nc1cccc(-c2nc(C3CCN(CC4CCN(C(=O)[C@H]5CC[C@H](Oc6ccc(C7CCC(=O)NC7=O)cc6)CC5)CC4)CC3)sc2-c2ccnc(N)n2)c1F (mixture of isomers) [Compound 224]

>  <recordedEndpoint>
DC50

>  <recordedValue>
> 500 nM

$$$$
>  <compound>
CCN(C)S(=O)(=O)Nc1cccc(-c2nc(C(C)(C)C)sc2-c2ccnc(Nc3ccc(N4CCN(C(=O)C5(C)CCN(c6ccc(C7CCC(=O)NC7=O)cn6)CC5)CC4)cn3)n2)c1F (racemic) [Compound 42]

>  <recordedEndpoint>
DC50

>  <recordedValue>
> 500 nM

$$$$
>  <compound>
CCCS(=O)(=O)Nc1cccc(-c2nc(C(C)(C)C)sc2-c2ccnc(Nc3cccc(OC4CCN(CC5(C)CCN(c6ccc(C7CCC(=O)NC7=O)cn6)CC5)CC4)c3)n2)c1F (racemic) [Compound 68]

>  <recordedEndpoint>
DC50

>  <recordedValue>
> 500 nM

$$$$
>  <compound>
CCCS(=O)(=O)Nc1cccc(-c2nc(C3CCN(C(=O)C4CCN(CC5CCN(c6ccc(C7CCC(=O)NC7=O)cn6)CC5)CC4)CC3)sc2-c2ccnc(NC)n2)c1F (racemic) [Compound 217]

>  <recordedEndpoint>
DC50

>  <recordedValue>
> 500 nM

$$$$

###

molecular target: BRAF V600E (Homo sapiens, UniProt P15056, V600E); construct: endogenous C-terminal HiBiT fusion tag on BRAF V600E allele; endogenous in cells; host or cells: A375 clone 1F10 (CRISPR-Cas9 knock-in of the HiBiT tag; parental A375 from ATCC); assay: BRAF HiBiT degradation assay, C-terminal HiBiT-tagged BRAF V600E A375 cells (clone 1F10), Nano-Glo HiBiT Lytic assay; type: cell-based; conditions: A375 (BRAF V600E); DC50 at 50%: fitted conc. at Y=50
Quick reference for DC50 among some compounds

>  <compound>
CCCS(=O)(=O)Nc1cccc(-c2nc(C(C)(C)C)sc2-c2ccnc(Nc3cccc(OC4CCN(C[C@H]5CC[C@H](Oc6ccc(C7CCC(=O)NC7=O)cc6)CC5)CC4)c3)n2)c1F (mixture of isomers)

>  <DC50>
10 to 50 nM

$$$$
>  <compound>
CCCS(=O)(=O)Nc1cccc(-c2nc(-c3ccc(N4CCN(CC5CCN(c6ccc([C@H]7CCC(=O)NC7=O)cc6)CC5)CC4)cc3)sc2-c2ccnc(N)n2)c1F

>  <DC50>
< 10 nM

$$$$
>  <compound>
CCCS(=O)(=O)Nc1cccc(-c2nc(C(C)(C)C)sc2-c2ccnc(Nc3cccc(OC4CCN(C(=O)C[C@H]5CCN(c6ccc(C7CCC(=O)NC7=O)cc6)C5)CC4)c3)n2)c1F (mixture of isomers)

>  <DC50>
50 to 500 nM

$$$$
>  <compound>
CCCS(=O)(=O)Nc1cccc(-c2nc(C(C)(C)C)sc2-c2ccnc(Nc3cnn(CC4CCN(C(=O)CN5CCN(c6cc(C7CCC(=O)NC7=O)ccn6)CC5)CC4)c3)n2)c1F (racemic)

>  <DC50>
10 to 50 nM

$$$$
>  <compound>
CCCS(=O)(=O)Nc1cccc(-c2cn(-c3ccc(C(=O)N4CCN(CC5CCN(c6ccc([C@H]7CCC(=O)NC7=O)cc6)CC5)CC4)cc3)nc2-c2ccncc2)c1F

>  <DC50>
50 to 500 nM

$$$$

###

biological target: BRAF V600E (Homo sapiens, UniProt P15056, V600E); construct: endogenous C-terminal HiBiT fusion tag on BRAF V600E allele; endogenous in cells; host or cells: A375 clone 1F10 (CRISPR-Cas9 knock-in of the HiBiT tag; parental A375 from ATCC); experiment: BRAF HiBiT degradation assay, C-terminal HiBiT-tagged BRAF V600E A375 cells (clone 1F10), Nano-Glo HiBiT Lytic assay; format: cell-based; conditions: A-375; A375 (BRAF V600E, Class 1); observed Dmax, % protein degraded relative to DMSO control
Quick reference for Dmax among some molecules

>  <molecule>
O=C1CC[C@H](c2ccc(N3CCC(CN4CCN(c5ccc(-n6cc(-c7cc(Cl)cc(NS(=O)(=O)N8CCCC8)c7F)c(-c7ccncc7)n6)cc5F)CC4)CC3)cc2)C(=O)N1 [Compound 364]

>  <Dmax>
> 70%

$$$$
>  <molecule>
O=C1CCC(c2ccc(N3CCC(CN4CCN(c5ccc(-n6cc(-c7cc(Cl)cc(NS(=O)(=O)N8CC[C@@H](F)C8)c7F)c(-c7ccncc7)n6)cc5F)CC4)CC3)nc2)C(=O)N1 (mixture of isomers) [Compound 366]

>  <Dmax>
> 70%

$$$$
>  <molecule>
C[C@@H]1CN(c2ccc(-n3cc(-c4cc(Cl)cc(NS(=O)(=O)N5CC[C@@H](F)C5)c4F)c(-c4ccncc4)n3)nc2)CCN1CC1CCN(c2ccc([C@H]3CCC(=O)NC3=O)cc2)CC1 [Compound 320]

>  <Dmax>
> 70%

$$$$
>  <molecule>
O=C1CCN(c2ccc(N3CCC(CN4CCN(c5ccc(-n6cc(-c7cc(Cl)cc(NS(=O)(=O)C8CCCC8)c7F)c(-c7ccncc7)n6)cc5)CC4)CC3)nc2)C(=O)N1 [Compound 388]

>  <Dmax>
> 70%

$$$$
>  <molecule>
CCCS(=O)(=O)Nc1cccc(-c2nc(C3(C)CCN(C(=O)CC4CCN(C5CCN(c6ccc7c(c6)C(=O)N(C6CCC(=O)NC6=O)C7=O)CC5)CC4)CC3)sc2-c2ccnc(N)n2)c1F (racemic) [Compound 249]

>  <Dmax>
30 to 70%

$$$$

Cited source: patent US20260317324A1
